system: L1210 leukemia ip in BDF1 mice, survival T/C; assay: NCI In Vivo Anticancer Drug Screen. Data for tumor model L1210 Leukemia (intraperitoneal) in B6D2F1 (BDF1) mice; conditions: endpoint: mean survival time; dose: 20.0 mg/kg/injection; schedule: Q01DX001 (ip); vehicle: saline; higher = longer survival
Toxic doses and inconclusive results are not listed.
quantityMeasured: T/C

compound | result
[O-]/[N+](=C\c1ccc(/C=[N+](\[O-])c2ccccc2)cc1)c1ccccc1 | 97 % of control
COc1cc(C=Nc2ccc(-c3nc(Cc4ccccc4)sc3C)cc2)ccc1N(CCCl)CCCl | 91 % of control
NC(=O)c1[nH]nc(C2OC(CO)C(O)C2O)c1O (configuration not stated) | 111 % of control
Cc1ccc(C[P+](c2ccccc2)(c2ccccc2)c2ccccc2)cc1 | 93 % of control
CN1C2CCC1C(O)C(c1ccccc1)C2 (configuration not stated) | 101 % of control
CCCCCCC1CCCCN1 (configuration not stated) | 98 % of control
O=C([O-])C(=O)[O-].[Cu+2].[OH2+]CC[N-]CC[OH2+].[OH2+]CC[N-]CC[OH2+] | 103 % of control

Reference source: PubChem BioAssay AID248
